A collection of compounds and their measured Inhibition rate (%) of Itch-Scratch response
- Tested on: Allergic Conjunctivitis Model
- assay-protocol: Alleviating action for allergic conjunctivitis model (Itch-Scratch response after OA challenge)
- Type: in vivo
- condition-context: OA-sensitized Wistar rats; test substance 1.0 w/v % suspension in physiological saline dropped into the eyes 10 minutes before OA challenge; scratching counted over 20 minutes after OA
Supply the numeric figure in %, leaving out any unit text.

compound: COc1ccc(N(Cc2ccc3ccccc3c2)C2=CC(=O)CC2)cc1OC1CCCC1
measurement-unit: %
reported: 82.7
//
compound: COc1ccc(NC2=C(C)C(=O)CC2)cc1O[C@H]1C[C@@H]2CC[C@H]1C2
measurement-unit: %
reported: 97.1
//
compound: COc1ccc(NC2=C(C)C(=O)CC2)cc1O[C@@H]1C[C@H]2CC[C@@H]1C2 (racemic) [Compound 2]
measurement-unit: %
reported: 62.9
//
compound: CCC1=C(Nc2ccc(OC)c(O[C@@H]3C[C@H]4CC[C@@H]3C4)c2)CCC1=O (racemic)
measurement-unit: %
reported: 63.5

Entry COc1ccc(NC2=C(C)C(=O)CC2)cc1O[C@@H]1C[C@H]2CC[C@@H]1C2 [Compound 4] — recorded Inhibition rate (%) of Itch-Scratch response = 68.6
